// data source = patent US11566007B2

Listed here: items and their measured IC50.
# Measurement Target: NRAS WT (Homo sapiens (Human), UniProt P01111+P62937)
# Sequence (P01111 whole entry): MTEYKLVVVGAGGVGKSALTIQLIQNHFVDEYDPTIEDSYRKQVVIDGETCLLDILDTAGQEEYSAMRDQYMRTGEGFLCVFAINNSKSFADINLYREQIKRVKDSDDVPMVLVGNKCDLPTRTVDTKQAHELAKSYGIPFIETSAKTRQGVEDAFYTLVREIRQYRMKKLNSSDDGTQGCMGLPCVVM
# Sequence (P62937 whole entry): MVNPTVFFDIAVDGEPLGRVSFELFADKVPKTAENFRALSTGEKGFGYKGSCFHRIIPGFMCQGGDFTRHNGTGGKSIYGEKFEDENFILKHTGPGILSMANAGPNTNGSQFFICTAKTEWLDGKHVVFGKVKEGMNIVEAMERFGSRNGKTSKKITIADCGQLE
# Test: Ras-Raf (BRAF RBD) disruption / FRET / MOA assay, NRAS WT
# Format: biochemical
# Condition Set: read-out: IC50* NRAS WT FRET data

Sample records with IC50:
{"columns": ["Compound", "IC50"],
 "data": [
  ["C=CC(=O)N1CC[C@H](C(=O)N(C)[C@H](C(=O)N[C@H]2Cc3cc(cc(C(F)F)c3)-c3ccc4c(c3)c(c(-c3cccnc3[C@H](C)OC)n4CC(F)(F)F)CC(C)(C)COC(=O)[C@@H]3CCCN(N3)C2=O)C(C)C)C1 (atropisomer, axis not shown) [Example A372]", "1000 to 10000 nM"],
  ["C=CC(=O)N(C)CCC1CCN(C(=O)N(C)[C@H](C(=O)N[C@H]2Cc3nc(cs3)-c3ccc4c(c3)c(c(-c3cccnc3[C@H](C)OC)n4CC)CC(C)(C)COC(=O)[C@@H]3CCCN(N3)C2=O)C(C)C)CC1 (atropisomer, axis not shown) [Example A621]", "10 to 100 nM"],
  ["C=CC(=O)N1CCN(C(=O)N(C)[C@H](C(=O)N[C@H]2Cc3nc(cs3)-c3ccc4c(c3)c(c(-c3cccnc3[C@H](C)OC)n4CC)CC(C)(C)COC(=O)[C@@H]3CCCN(N3)C2=O)C(C)C)CC12CC2 (atropisomer, axis not shown) [Example A417]", "10 to 100 nM"],
  ["C=CC(=O)N(C)[C@@H]1C[C@@H](C)N(C(=O)N(C)[C@H](C(=O)N[C@H]2Cc3nc(cs3)-c3ccc4c(c3)c(c(-c3cccnc3[C@H](C)OC)n4CC)CC(C)(C)COC(=O)[C@@H]3CCCN(N3)C2=O)C(C)C)C1 (atropisomer, axis not shown) [Example A634]", "100 to 1000 nM"],
  ["C=CC(=O)N1CC[C@H](C(=O)N(C)[C@H](C(=O)N[C@H]2Cc3cccc(c3)-c3ccc4c(c3)c(c(-c3cccnc3[C@H](C)OC)n4CC3COC3)CC(C)(C)COC(=O)[C@@H]3CCCN(N3)C2=O)C(C)C)C1 (atropisomer, axis not shown) [Example A481]", "1000 to 10000 nM"]
]}

Lookup: Lab note: need IC50 for C=CC(=O)N1CCOC2(CCN(C(=O)N(C)[C@H](C(=O)N[C@H]3Cc4nc(n(C)n4)-c4ccc5c(c4)c(c(-c4cccnc4[C@H](C)OC)n5CC(F)(F)F)CC(C)(C)COC(=O)[C@@H]4CCCN(N4)C3=O)C(C)C)CC2)C1 (atropisomer, axis not shown) [Example A606] on NRAS WT (Homo sapiens (Human), UniProt P01111+P62937), anyone have it?
Found: 100 to 1000 nM

Lookup: Observed IC50 on NRAS WT (Homo sapiens (Human), UniProt P01111+P62937) for C=CC(=O)N1CC[C@H](C(=O)N(C)[C@H](C(=O)N[C@H]2Cc3coc(n3)-c3ccc4c(c3)c(c(-c3cccnc3[C@H](C)OC)n4CC)CC(C)(C)COC(=O)[C@@H]3CCCN(N3)C2=O)C(C)C)C1 (atropisomer, axis not shown) [Example A468] , please.
Found: 1000 to 10000 nM

* * *

# Measurement Target: K-Ras G12C (Homo sapiens (Human), UniProt P01116+P62937, G12C)
# Sequence (P01116-2 other isoform, or with tags, fused parts or gaps G12C): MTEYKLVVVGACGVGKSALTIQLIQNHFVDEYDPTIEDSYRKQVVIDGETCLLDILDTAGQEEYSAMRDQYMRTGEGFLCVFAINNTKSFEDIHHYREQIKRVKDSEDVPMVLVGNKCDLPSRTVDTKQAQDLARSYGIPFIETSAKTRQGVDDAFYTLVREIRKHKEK
# Sequence (P62937 whole entry): as the sequence (P62937 whole entry) above
# Test: Ras-Raf (BRAF RBD) disruption / FRET / MOA assay, KRAS G12C
# Assay type: biochemical
# Condition Set: KRAS G12C; Ras-Raf disruption/FRET/MOA assay; read-out: IC50* KRAS G12C FRET data
Readings of IC50 for the listed compounds

{"columns": ["Compound", "Test Result"],
 "data": [
  ["C=CC(=O)N(C)CCN1CCN(C(=O)N(C)[C@H](C(=O)N[C@H]2Cc3cccc(c3)-c3ccc4c(c3)c(c(-c3cccnc3[C@H](C)OC)n4CC)CC(C)(C)COC(=O)[C@@H]3CCCN(N3)C2=O)C(C)C)C[C@H]1C (atropisomer, axis not shown) [Example A553]", "100 to 1000 nM"],
  ["CO[C@@H](C)c1ncccc1-c1c2c3nc(ccc3n1CC(F)(F)F)-c1cccc(c1)C[C@H](NC(=O)[C@@H](COC1CN(C(=O)C#CC(C)(C)N(C)C)C1)C(C)C)C(=O)N1CCC[C@H](N1)C(=O)OCC(C)(C)C2 (atropisomer, axis not shown) [Example A724]", "10 to 100 nM"]
]}

Lookup: // lookup IC50 | system=K-Ras G12C (Homo sapiens (Human), UniProt P01116+P62937, G12C) | key= C=CC(=O)N1CCO[C@H]2CCN(C(=O)N(C)[C@H](C(=O)N[C@H]3Cc4nc(cs4)-c4ccc5c(c4)c(c(-c4cccnc4[C@H](C)OC)n5CC)CC(C)(C)COC(=O)[C@@H]4CCCN(N4)C3=O)C(C)C)C[C@@H]21 (atropisomer, axis not shown) [Example A609]
Found: < 10 nM

Lookup: Observed IC50 on K-Ras G12C (Homo sapiens (Human), UniProt P01116+P62937, G12C) for CCn1c(-c2cncnc2)c2c3cc(ccc31)-c1cccc(c1)[C@@H](OC)[C@H](NC(=O)[C@H](C(C)C)N(C)C(=O)[C@H]1CCN(C(=O)C#CCN3CCOCC3)C1)C(=O)N1CCC[C@H](N1)C(=O)OCC(C)(C)C2 [Example A208] , please.
Found: 100 to 1000 nM

* * *

# Measurement Target: KRAS G13D (Homo sapiens (Human), UniProt P01116+P62937, G13D)
# Sequence (P01116-2 other isoform, or with tags, fused parts or gaps G13D): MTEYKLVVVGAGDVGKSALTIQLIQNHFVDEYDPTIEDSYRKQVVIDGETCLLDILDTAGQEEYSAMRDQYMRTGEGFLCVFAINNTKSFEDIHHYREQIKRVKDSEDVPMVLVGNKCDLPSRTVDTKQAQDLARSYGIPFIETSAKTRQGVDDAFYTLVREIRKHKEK
# Sequence (P62937 whole entry): as the sequence (P62937 whole entry) above
# Test: Ras-Raf (BRAF RBD) disruption / FRET / MOA assay, KRAS G13D
# Type: biochemical
# Condition Set: read-out: IC50* KRAS G13D FRET data
Attribute Measured: IC50

Past entries and their recorded results:
{"columns": ["Compound", "IC50"],
 "data": [
  ["C=CC(=O)C1CC[C@H](C(=O)N(C)[C@H](C(=O)N[C@H]2Cc3cc(O)cc(c3)-c3ccc4c(c3)c(c(-c3cnn(C)c3[C@H](C)OC)n4CC)CC(C)(C)COC(=O)[C@@H]3CCCN(N3)C2=O)C(C)C)C1 (stereo partly drawn)", "1000 to 10000 nM"],
  ["C=CC(=O)N1C[C@@H](C(=O)N(C)[C@H](C(=O)N[C@H]2Cc3cccc(c3)-c3ccc4c(c3)c(c(-c3cccnc3[C@H](C)OC)n4CC)CC(C)(C)COC(=O)[C@@H]3CCCN(N3)C2=O)C(C)C)C(C)(C)C1 (atropisomer, axis not shown)", "1000 to 10000 nM"],
  ["CCn1c(-c2cccnc2COC)c2c3cc(ccc31)-c1cc(C)cc(c1)C[C@H](NC(=O)[C@H](C(C)C)N(C)C(=O)[C@H]1CCN(C(=O)C#CCN(C)C)C1)C(=O)N1CCC[C@H](N1)C(=O)OCC(C)(C)C2", "1000 to 10000 nM"],
  ["C=CC(=O)N1CCOC2(CCN(C(=O)N(C)[C@H](C(=O)N[C@H]3Cc4cc(CF)cc(c4)-c4ccc5c(c4)c(c(-c4cccnc4[C@H](C)OC)n5CC(F)(F)F)CC(C)(C)COC(=O)[C@@H]4CCCN(N4)C3=O)C(C)C)CC2)C1 (atropisomer, axis not shown)", "100 to 1000 nM"]
]}

Lookup: GET /values?readout=IC50&system=KRAS G13D (Homo sapiens (Human), UniProt P01116+P62937, G13D)&item= C=CC(=O)N1CC[C@@](C#N)(C(=O)N(C)[C@H](C(=O)N[C@H]2Cc3cccc(c3)-c3ccc4c(c3)c(c(-c3cccnc3[C@H](C)OC)n4CC)CC(C)(C)COC(=O)[C@@H]3CCCN(N3)C2=O)C(C)C)C1 (atropisomer, axis not shown)
Found: 1000 to 10000 nM

Lookup: What IC50 appears in the records for this compound with KRAS G13D (Homo sapiens (Human), UniProt P01116+P62937, G13D)? C=CC(=O)N1C[C@@H](N(C)C(=O)N(C)[C@H](C(=O)N[C@H]2Cc3nc(cs3)-c3ccc4c(c3)c(c(-c3cccnc3[C@H](C)OC)n4CC)CC(C)(C)COC(=O)[C@@H]3CCCN(N3)C2=O)C(C)C)[C@@H](C)C1 (atropisomer, axis not shown)
Found: 1000 to 10000 nM

Lookup: Lab note: need IC50 for CCn1c(-c2cccnc2[C@H](C)OC)c2c3cc(ccc31)-c1cccc(c1)C[C@H](NC(=O)[C@H](C(C)C)N1CC[C@@]3(CCN(C(=O)C#C[C@H]4COCCN4C)C3)C1=O)C(=O)N1CCC[C@H](N1)C(=O)OCC(C)(C)C2 (atropisomer, axis not shown) on KRAS G13D (Homo sapiens (Human), UniProt P01116+P62937, G13D), anyone have it?
Found: 1000 to 10000 nM

Lookup: Tell me reported IC50 for C=CC(=O)C1C[C@@H](C(=O)N(C)[C@H](C(=O)N[C@H]2Cc3cc(O)cc(c3)-c3ccc4c(c3)c(c(-c3ccccc3CCOC)n4CC)CC(C)(C)COC(=O)[C@@H]3CCCN(N3)C2=O)C(C)C)[C@@H](OC)N1 (stereo partly drawn) , tested with KRAS G13D (Homo sapiens (Human), UniProt P01116+P62937, G13D).
Found: > 10000 nM

Lookup: Lab note: need IC50 with KRAS G13D (Homo sapiens (Human), UniProt P01116+P62937, G13D) for entry CO[C@@H](C)c1ncccc1-c1c2c3cc(ccc3n1CC(F)(F)F)-c1csc(n1)C[C@H](NC(=O)[C@@H](COC1CN(C(=O)C#CC(C)(C)N(C)C)C1)C(C)C)C(=O)N1CCC[C@H](N1)C(=O)OCC(C)(C)C2 (atropisomer, axis not shown) , please look it up.
Found: > 10000 nM

Lookup: Missing value: IC50, KRAS G13D (Homo sapiens (Human), UniProt P01116+P62937, G13D), entry CCn1c(-c2cccnc2[C@H](C)OC)c2c3cc(ccc31)-c1csc(n1)C[C@H](NC(=O)[C@H](C(C)C)N(C)C(=O)N(C)C1CN(C(=O)/C=C/[C@@H]3CCCN3C)C1)C(=O)N1CCC[C@H](N1)C(=O)OCC(C)(C)C2 (atropisomer, axis not shown) . Fill in?
Found: 100 to 1000 nM

Lookup: Requested read-out IC50, target or system KRAS G13D (Homo sapiens (Human), UniProt P01116+P62937, G13D), entry CO[C@@H](C)c1ncccc1-c1c2c3cc(ccc3n1CC(F)(F)F)N1CCO[C@@H](C[C@H](NC(=O)[C@H](C(C)C)N3CC[C@]4(CCN(C(=O)C#CC(C)(C)N(C)C)C4)C3=O)C(=O)N3CCC[C@H](N3)C(=O)OCC(C)(C)C2)C1 (atropisomer, axis not shown)
Found: 1000 to 10000 nM

Lookup: Notebook: pull reported IC50 for KRAS G13D (Homo sapiens (Human), UniProt P01116+P62937, G13D), entry CO[C@@H](C)c1ncccc1-c1c2c3cc(ccc3n1CC(F)(F)F)-c1cccc(c1)C[C@H](NC(=O)[C@H](C(C)C)N(C)C(=O)N1CCC3(CC1)CN(C(=O)/C=C/CN(C)C)C3)C(=O)N1CCC[C@H](N1)C(=O)OCC(C)(C)C2 (atropisomer, axis not shown)
Found: 100 to 1000 nM

Lookup: Lab note: need IC50 with KRAS G13D (Homo sapiens (Human), UniProt P01116+P62937, G13D) for entry C=CC(=O)N1CC[C@H](C(=O)N(C)[C@H](C(=O)N[C@H]2Cc3cccc(c3)-c3ccc4c(c3)c(c(-c3cc(CN(C)C)cnc3[C@H](C)OC)n4CC)CC(C)(C)COC(=O)[C@@H]3CCCN(N3)C2=O)C(C)C)C1 [Example A523] , please look it up.
Found: > 10000 nM

Lookup: Return IC50 measured with KRAS G13D (Homo sapiens (Human), UniProt P01116+P62937, G13D) given this compound: CCn1c(-c2cccnc2[C@H](C)OC)c2c3cc(ccc31)-c1cccc(c1)C[C@H](NC(=O)[C@H](C(C)C)N(C)C(=O)C1(F)CCN(C(=O)C#CC(C)(C)N(C)C)CC1)C(=O)N1CCC[C@H](N1)C(=O)OCC(C)(C)C2 (atropisomer, axis not shown)
Found: 100 to 1000 nM

Lookup: Checklist item: IC50 tested on KRAS G13D (Homo sapiens (Human), UniProt P01116+P62937, G13D), entry CCn1c(-c2cncnc2)c2c3cc(ccc31)-c1cccc(c1)C[C@H](NC(=O)[C@H](C(C)C)N(C)C(=O)[C@H]1CCN(C(=O)C#CCN3CCOCC3)C1)C(=O)N1CCC[C@H](N1)C(=O)OCC(C)(C)C2 , value?
Found: > 10000 nM
